Cited source: ChEMBL document CHEMBL4052757

Quick reference for IC50 among some compounds
# Tested on: J774.1
# TEST DETAILS: Cytotoxicity against mouse J774.1 cells after 24 hrs by alamar blue assay
# Type: cell-based
# CONDITION LABEL: J774.1, 24 h
Numbers only; they are read as µM.

{"columns": ["COMPOUND", "SYSTEM", "IC50, µM"],
 "data": [
  ["C1=Cc2c(nc3ccccc3c2NCCCCCCCCCCNc2c3c(nc4ccccc24)CCC=C3)CC1", "J774.1", 9.7],
  ["CCC1CCc2nc3ccc(Cl)cc3c(N)c2C1 (centres undefined)", "J774.1", 8.3],
  ["CCCCOC1CCc2nc3cc(Cl)ccc3c(NCCCCCCCCCNc3c4c(nc5cc(Cl)ccc35)CCC(OCCCC)C4)c2C1 (centres undefined)", "J774.1", 8.6]
]}

*Q* Quick one: IC50 of CCCC1CCc2nc3cc(Cl)ccc3c(N)c2C1 (centres undefined) ?
*A* 8.4
